Record form. Attribute: log10 of LC retention time. Fill in for each entry.
Assay: RP, Waters ACQUITY UPLC HSS T3, 150 × 2.1 mm, 1.8 µm, 40 °C, 0.28 mL/min, estimated dead time 1.2 min; A: water + 0.1% formic acid, pH 3; B: methanol + 0.1% formic acid, pH 3; gradient (min/%B) 0/0 1/0 3/10 18/40 21/100 25.5/100 25.6/0 28/0
Conditions: stereoisomer not certain
Scale: decimal log of LC retention time, LC retention time in min.

O=c1[nH]c(=O)c2[nH]cnc2[nH]1: 0.60

Each molecule below has a recorded value; state its log10 of LC retention time.
1. COc1cc(C(=O)O)cc(OC)c1O
2. O=c1c(OC2OC(CO)C(O)C(O)C2O)c(-c2ccc(O)cc2)oc2cc(O)cc(O)c12 (stereo not drawn) [kaempferol 3-glucoside]
3. O=C(O)c1ccc(O)c(O)c1 [3,4-dihydroxybenzoic acid]
4. O=C(CCc1ccc(O)cc1)c1c(O)cc(O)cc1OC1OC(CO)C(O)C(O)C1O (stereo not drawn)
5. O=c1c(OC2OC(CO)C(O)C(O)C2O)c(-c2ccc(OC3OC(CO)C(O)C(O)C3O)c(O)c2)oc2cc(O)cc(O)c12 (stereo not drawn) [quercetin 3,4'-diglucoside]

Return:
1.14
1.31
0.89
1.31
1.24

Each molecule below has a recorded value; state its log10 of LC retention time.
1. O=C(O)C1OC(Oc2c(-c3ccc(O)c(O)c3)oc3cc(O)cc(O)c3c2=O)C(O)C(O)C1O (stereo not drawn) [quercetin 3-glucuronide]
2. O=C(O)[C@@H]1CCCN1

Return:
1: 1.30; 2: 0.18
